melting point by entry:

Solved cases (3 shown):
>>> observed_measurement("COC(=O)C1N=C(c2ccccc2)c2cc(Cl)ccc2NC1=O (stereo unspecified)")
"222 °C"
>>> observed_measurement("COc1cc(OC)c(-c2cc3ccccc3[nH]2)cc1C=CC(=O)c1ccc(S(=O)(=O)N(C)C)cc1")
"158 to 162 °C"
>>> observed_measurement("Cc1nc2sc(S(=O)(=O)Cl)cc2c(=O)n1-c1ccccc1Cl")
"172 to 174 °C"

Request: Request the reported melting point associated with CCCCNC(=O)Oc1ccc(Oc2ccc(OC)cc2)cc1
Response: 63 to 64 °C

Request: Which melting point reading was recorded for the compound CC1=CC(OC(=O)c2ccc([N+](=O)[O-])cc2)C2OC1(OCCO)CC2(C)C (stereo unspecified) ?
Response: 166 to 168 °C

Request: Reported melting point, compound Cn1nc(Cl)c(C(=O)OC2COC2)c1S(N)(=O)=O : ____
Response: 145 to 147 °C

###

measured-parameter: melting point

Request: Would you kindly share the measured melting point for O=c1cc(O)c2cccnc2n1Cc1ccccc1 ?
Response: 250 to 253 °C

Request: Field request: melting point | item: CCCC(=O)c1cnc2ccsc2c1Nc1ccc(F)cc1C
Response: 153 to 155 °C

Request: What does the data say about its melting point? Entry: CC1(COC(=O)Oc2c(F)c(F)c(F)c(F)c2F)COC(=O)OC1
Response: 130 to 131 °C

Request: Data request, read-out melting point, for CC=C(Cl)C(Cl)CC(O)(Cn1cncn1)C1(Cl)CC1 (stereo unspecified)
Response: 79 to 80 °C

Request: melting point lookup needed for Cc1cccc(-c2nc3cnccc3[nH]2)c1 , thanks.
Response: 202 to 204 °C

Request: Can you share its melting point? I mean this molecule: O=C(Nc1ccc(Oc2ccnc(NC3CCCC3)n2)c2ccccc12)c1cc(F)cc(N2CCOCC2)c1
Response: 119 to 120 °C

###

Recorded melting point by entry

Previously resolved entries follow.
>>> observed_measurement("Cc1ccc(C(=C/C=C/CO)c2ccc(C)cc2)cc1")
"82 to 83 °C"
>>> observed_measurement("Cc1[nH]cnc1CON1C(=O)c2ccccc2C1=O")
"155 to 156 °C"
>>> observed_measurement("Nc1nc(N)n(CCCOc2cccc(CN3CCCCC3)c2)n1")
"100 °C"
>>> observed_measurement("CC(C)NC(=O)C(O)C(Oc1ccccc1)c1ccccc1 (stereo not given)")
"166 to 168 °C"

Okay, next one:
Request: What value of measured melting point is listed for COc1ccc2c(c1)NC(=O)N(c1ccc(Cl)cc1)S2(=O)=O ?
Response: 229 to 230 °C

###

Below, each entry is listed alongside its reported melting point.

Use the examples below as a reference point.
>>> observed_measurement("CN(C)C=Cc1cccnc1C#N")
"71.5 to 72 °C"
>>> observed_measurement("Cn1cc(Br)c(-c2cccc(NC(=O)Cc3ccc(OC(F)(F)F)cc3)c2)n1")
"141 to 142 °C"
>>> observed_measurement("O=S(=O)(NC(CO)CO)c1ccc(Cl)s1")
"90 to 92 °C"
>>> observed_measurement("Cc1cccc(Cn2cc(C(=O)C(=O)NC3=CC(=O)OC3)c3ccccc32)c1")
"298 to 300 °C"
>>> observed_measurement("Cc1nc2ccc(NS(=O)(=O)c3cccc(Cl)c3C)cc2nc1C")
"225 to 226 °C"

Request: Item C#CCOc1cc(N=C(C=NOC)N2CCCC2)c(F)cc1Cl has what recorded melting point?
Response: 73 to 75 °C

Request: Can you share its melting point? I mean this molecule: CC(OCc1cc2cc(C(F)(F)F)ccc2n1S(=O)(=O)c1ccc2c(c1)OCCO2)C(=O)O (centres undefined)
Response: 70 °C

###

measured-parameter: melting point

Below, each entry is followed by its recorded melting point result.
>>> observed_measurement("CCOCC(O)COc1ccc(NC(=O)CCSC)cc1 (configuration not stated)")
"79 to 81 °C"
>>> observed_measurement("Cc1cc(-c2cnc(N)c(C(=O)Nc3cccnc3)n2)ccc1F")
"186 to 189 °C"
>>> observed_measurement("C=C(C)c1cn(-c2c(Cl)cc(C(F)(F)F)cc2Cl)nc1C#N")
"63 to 64 °C"
>>> observed_measurement("CCOC(=O)[C@@H]1C[C@H]1Sc1nc2ccccc2cc1-c1ccccc1 (relative stereo)")
"94 to 94.5 °C"
>>> observed_measurement("COc1cc2c(=O)cc3c4ccccc4sn3c2c(OC)c1OC")
"196 °C"
>>> observed_measurement("CC(=O)Oc1cccc2c1CCNC2=O")
"189 to 193 °C"

Request: Using the record for NC(=NO)c1ccc(NC(=O)CC(=O)N2CCC(OCC(=O)O)CC2)cc1 , report its melting point.
Response: 133 to 135 °C

Request: melting point for OCc1c(F)ccc(-c2ccc3nc(-c4ccc(Cl)cc4)cn3c2)c1F ?
Response: 214 to 216 °C

Request: Any idea what melting point was measured for CNC(=O)C(=NOC)c1ccccc1COc1ncc(Sc2ccccc2)cc1Cl ?
Response: 84 to 86 °C

Request: Any idea what melting point was measured for NCCc1c(Br)[nH]c2ccc3c(=O)[nH]ccc3c12 ?
Response: 252 °C

Request: Query: melting point; subject: CC(C)(C)[S@](=O)N1CCC[C@@H]1c1ccc(Br)cc1
Response: 100 to 112 °C

###

measured-parameter: melting point

Answered cases to consult:
>>> observed_measurement("COc1ccccc1C1=CC(N2CCN(Cc3ccc(C)cc3)CC2)=NC12C=CC(=O)C=C2")
"147 °C"
>>> observed_measurement("COC(=O)c1c(-c2ccccc2)oc2c(CCl)cccc2c1=O")
"150 °C"

Attention now turns to another entry.
Request: Would you mind telling me what melting point value was observed for COC(=O)c1ccc(-c2ccc3cc(OCc4ccc(F)cc4)c(C45CC6CC(CC(C6)C4)C5)cc3c2)cc1O ?
Response: 189 to 191 °C

###

measured-parameter: melting point

Would you please look over these solved cases?
>>> observed_measurement("CCOC(=O)NN=C(c1ccc(Cl)cc1)c1ccc(CS(C)=O)cc1 (centres undefined)")
"65 to 70 °C"
>>> observed_measurement("COc1cc(N)c(Cl)cc1C(=O)NN1CCN2CCCCC2C1 (centres undefined)")
"118 to 119 °C"
>>> observed_measurement("CCOc1ccc(C2=NN(Cc3ccccc3)C(=O)[C@H]3CCCC[C@@H]23)cc1OCC (relative stereo)")
"91 to 92 °C"
>>> observed_measurement("O=C1Cc2cccc(C(=O)c3ccc(Cl)cc3)c2N1")
"186 °C"
>>> observed_measurement("CNC(=S)NN=C(CCCCl)c1cccnc1")
"100 to 102 °C"

Moving on to the next molecule.
Request: Look at this molecule and give its reported melting point. O=[N+]([O-])c1ccc(C2NCCc3c2[nH]c2ccccc32)cc1 (centres undefined)
Response: 190 °C

###

Reported melting point values for a set of molecules

Here are 10 molecules together with their reported answers.
>>> observed_measurement("CC(=O)n1c(=O)n(-c2ccc3c(c2)OCO3)c2ncccc21")
"211 to 212 °C"
>>> observed_measurement("COC(=O)C(O)=Cc1ccc(OCc2ccc(F)cc2)cn1")
"131 to 132 °C"
>>> observed_measurement("Cc1oc(-c2ccccc2)nc1COc1ccc(COc2nn(Cc3ccccc3)cc2CCC(=O)O)cc1")
"125 to 126 °C"
>>> observed_measurement("COC(=O)CN1C(=O)C2=C(c3ccc(Cl)cc3C(c3ccccc3Cl)=NC2)C1C (stereo not drawn)")
"221 to 223 °C"
>>> observed_measurement("COc1ccc(Oc2cc(Oc3ccc(OC)cc3)c(S(N)(=O)=O)cc2C(=O)O)cc1")
"246 to 248 °C"
>>> observed_measurement("Cc1noc(=O)c2ccc(NC(=O)C(=O)CC3(c4cccc(C(F)(F)F)c4F)CC3)cc12")
"117 to 118 °C"
>>> observed_measurement("CC(NC(=O)C(O)c1cc(F)cc(F)c1)C(=O)NC1N=C(c2ccccc2)c2ccccc2N(C)C1=O (stereo not drawn)")
"128 °C"
>>> observed_measurement("COC(=O)C1=Cc2cc(-c3ccc(N4CCOCC4)cc3)ccc2N(C(=O)OC)CC1")
"216 to 220 °C"
>>> observed_measurement("CC(C)(C)C(NC(=O)c1ccc(Cl)cc1)Nc1c(Nc2ccccn2)c(=O)c1=O (stereo not drawn)")
"246 to 248 °C"
>>> observed_measurement("N#Cc1ccc(N(Cc2ccc(OS(N)(=O)=O)c(F)c2)n2cnnc2)cc1-c1ccccc1")
"198 to 200 °C"

Request: Fill blank: measured melting point of the molecule N#Cc1c(Cc2ccccc2)n[nH]c1N is ____.
Response: 183 to 185 °C

Request: I am curious: what melting point value has been reported for Oc1ccc2cc(Br)ccc2c1-c1c(O)ccc2cc(Br)ccc12 ?
Response: 109 to 114 °C

Request: melting point lookup needed for C=C(Oc1cc(-n2c(=O)cc(C(F)(F)F)[nH]c2=O)c(F)cc1Cl)C(=O)OC , thanks.
Response: 171 to 173 °C
